Values compiled from patent US12312333B2.

Biological target: rat KCa2.2a (UniProt P0DP23+P70604)
Construct: expressed in transfected cells; host or cells: HEK293
Assay: Inside-out patch-clamp potentiation of KCa2.2a channels expressed in HEK293 cells
Format: cell-based
Conditions: normalized to 10 μM Ca2+
metric: efficacy (Emax) on KCa2.2a channels

Cc1cc(Nc2cc(Cl)ccc2F)nc(-c2coc(C)n2)n1	retained their efficacy
Cc1cn(-c2nc(C)cc(Nc3cc(Cl)ccc3F)n2)cn1	retained their efficacy
Cc1cc(Nc2ccc(F)c(Cl)c2)nc(-c2coc(C)n2)n1	retained their efficacy
